- assay-details: Stability analysis under in vitro assay conditions, HPLC quantification of released hydroxamic acid
- Assay type: physicochemical
- test-conditions: in vitro assay conditions without substrate, HDAC1 present, compound 2.4 mM, 90 min 37 °C
quantity-name: Release of SAHA (%)
Express it in %; write the number only.

Solved cases (4 shown):
• CC(C)NC(=O)ONC(=O)CCCCCCC(=O)Nc1ccccc1 = 2.2
• O=C(CCCCCCC(=O)Nc1ccccc1)NOC(=O)Nc1ccccc1 = 4.6
• O=C(CCCCCCC(=O)Nc1ccccc1)NOC(=O)NCc1ccccc1 = 0.5
• CCNC(=O)ONC(=O)CCCCCCC(=O)Nc1ccccc1 = 14.5

Shifting focus to the molecule that follows.
Given `O=C(CCCCCCC(=O)Nc1ccccc1)NOC(=O)N1CCNCC1` , respond with its Release of SAHA (%).
3.7

---

- measured-on: recombinant human HDAC1 (Homo sapiens)
- Construct: purchased BPS Biosciences (San Diego, CA, USA)
- Sequence (Q13547 whole entry): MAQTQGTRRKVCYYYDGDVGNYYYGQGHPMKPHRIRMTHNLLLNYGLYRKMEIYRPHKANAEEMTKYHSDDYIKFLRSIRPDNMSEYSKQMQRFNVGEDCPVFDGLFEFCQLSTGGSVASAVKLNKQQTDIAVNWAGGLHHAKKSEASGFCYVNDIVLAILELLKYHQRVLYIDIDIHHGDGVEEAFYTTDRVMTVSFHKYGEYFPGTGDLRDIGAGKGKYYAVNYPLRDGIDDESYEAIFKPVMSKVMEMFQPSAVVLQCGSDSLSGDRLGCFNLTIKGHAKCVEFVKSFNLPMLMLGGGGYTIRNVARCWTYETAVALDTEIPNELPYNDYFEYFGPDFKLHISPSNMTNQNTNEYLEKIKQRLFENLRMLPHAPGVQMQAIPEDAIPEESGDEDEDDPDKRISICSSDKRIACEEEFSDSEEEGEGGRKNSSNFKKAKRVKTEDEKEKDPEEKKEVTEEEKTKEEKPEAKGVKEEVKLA
- assay-details: HDAC1 in vitro fluorescence-based inhibition assay (ZMAL substrate)
- Assay type: biochemical
- test-conditions: recombinant human HDAC1, ZMAL 10.5 µM, 90 min 37 °C; read-out: IC50 (µM) ± SE HDAC1
The label is yes for IC50 below 2 µM and no for IC50 equal to or exceeding 2 µM.

Worked examples, 4 molecules total:
- O=C(CCCCCCC(=O)Nc1ccccc1)NOC(=O)Nc1ccccc1: yes
- CCNC(=O)ONC(=O)CCCCCCC(=O)Nc1ccccc1: yes
- CCCCOc1ccc(CC(=O)NO)cc1 [Bufexamac (8), bufexamac, reference compound]: no
- O=C(CCCCCCC(=O)Nc1ccccc1)NOC(=O)NCc1ccccc1: yes

Below: the item to evaluate.
Record `CC(C)NC(=O)ONC(=O)CCCCCCC(=O)Nc1ccccc1` : is its IC50 strictly below 2 µM?
yes

---

- System: HL60 cells
- assay-details: Cell proliferation assay (CellTiter 96 AQueous) in HL60 cells
- test-conditions: Homo sapiens, HL-60, 72 h, read-out: GI50 (µM) ± SE HL60
Overview of reported log10 GI50 across a group of molecules:
# values: log10(GI50), units µM

* O=C(CCCCCCC(=O)Nc1ccccc1)NOC(=O)N1CCNCC1 | 1.41
* O=C(CCCCCCC(=O)Nc1ccccc1)NOC(=O)NCc1ccccc1 | 0.03
* O=C(CCCCCCC(=O)Nc1ccccc1)NOC(=O)Nc1ccccc1 | -0.24

Report log10 GI50 for `CCNC(=O)ONC(=O)CCCCCCC(=O)Nc1ccccc1`
0.00

Consider the molecule CCCCOc1ccc(CC(=O)NO)cc1 [Bufexamac (8), bufexamac, reference compound] and give its recorded log10 GI50.
1.50

Give log10 GI50 for the following molecule: `CCCCOc1ccc(CC(=O)NOC(=O)NC(C)C)cc1`
1.53

Report measured log10 GI50; entry is `CC(C)NC(=O)ONC(=O)CCCCCCC(=O)Nc1ccccc1`
0.01

Name the recorded log10 GI50 of the molecule listed here: O=C(CCCCCCC(=O)Nc1ccccc1)NO [SAHA (1), N-hydroxy-N′-phenyloctanediamide, reference compound]
-0.27

---

- Tested on: HDAC activity in U937 cells
- assay-details: Cellular HDAC inhibition assay (MAL substrate) in U937 cells
- test-conditions: Homo sapiens, U-937, read-out: IC50 (µM) ± SE cellular HDAC inhibition U937
quantity-name: IC50 (µM)
Please reply with the bare figure in µM and do not write the unit itself.

- O=C(CCCCCCC(=O)Nc1ccccc1)NOC(=O)NCc1ccccc1: 3.02
- O=C(CCCCCCC(=O)Nc1ccccc1)NOC(=O)Nc1ccccc1: 0.71
- CCNC(=O)ONC(=O)CCCCCCC(=O)Nc1ccccc1: 2.07

Here is another molecule to look at.
Please report IC50 for the following molecule: `CC(C)NC(=O)ONC(=O)CCCCCCC(=O)Nc1ccccc1`
5.3

---

- measured-on: recombinant human HDAC6 (Homo sapiens)
- Construct: purchased BPS Biosciences (San Diego, CA, USA)
- Sequence (Q9UBN7 1-1215): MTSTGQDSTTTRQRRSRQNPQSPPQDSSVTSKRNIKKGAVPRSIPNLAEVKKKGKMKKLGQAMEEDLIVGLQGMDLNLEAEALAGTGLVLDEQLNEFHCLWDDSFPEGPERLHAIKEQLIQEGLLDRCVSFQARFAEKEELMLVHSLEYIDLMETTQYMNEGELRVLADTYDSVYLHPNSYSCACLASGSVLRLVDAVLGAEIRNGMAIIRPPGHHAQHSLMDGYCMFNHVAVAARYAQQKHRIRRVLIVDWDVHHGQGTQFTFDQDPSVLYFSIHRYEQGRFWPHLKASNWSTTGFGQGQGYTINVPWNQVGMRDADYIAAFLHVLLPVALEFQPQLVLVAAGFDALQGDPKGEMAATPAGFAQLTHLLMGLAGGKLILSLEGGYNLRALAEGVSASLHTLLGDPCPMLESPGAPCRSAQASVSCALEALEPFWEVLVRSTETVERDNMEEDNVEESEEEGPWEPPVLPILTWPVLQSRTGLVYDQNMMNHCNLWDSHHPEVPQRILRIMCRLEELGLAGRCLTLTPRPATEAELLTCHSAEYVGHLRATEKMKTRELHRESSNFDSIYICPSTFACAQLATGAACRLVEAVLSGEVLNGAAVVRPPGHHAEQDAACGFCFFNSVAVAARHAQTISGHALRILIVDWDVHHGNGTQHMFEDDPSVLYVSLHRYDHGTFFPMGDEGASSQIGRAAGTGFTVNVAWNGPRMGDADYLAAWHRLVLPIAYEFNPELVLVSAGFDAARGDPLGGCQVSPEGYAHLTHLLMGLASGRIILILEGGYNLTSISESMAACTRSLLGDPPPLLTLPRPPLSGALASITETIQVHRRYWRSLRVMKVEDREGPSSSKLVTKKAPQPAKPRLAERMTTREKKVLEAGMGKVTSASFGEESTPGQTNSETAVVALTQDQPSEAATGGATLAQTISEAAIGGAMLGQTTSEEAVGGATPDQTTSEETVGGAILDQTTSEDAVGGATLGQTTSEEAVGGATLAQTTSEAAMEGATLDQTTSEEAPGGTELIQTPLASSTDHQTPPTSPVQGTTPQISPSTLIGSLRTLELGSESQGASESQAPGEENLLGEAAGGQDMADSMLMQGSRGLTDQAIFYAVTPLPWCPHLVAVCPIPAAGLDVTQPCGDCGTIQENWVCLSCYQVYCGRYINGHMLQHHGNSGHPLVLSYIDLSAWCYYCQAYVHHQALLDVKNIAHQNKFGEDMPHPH
- assay-details: HDAC6 in vitro fluorescence-based inhibition assay (ZMAL substrate)
- Type: biochemical
- test-conditions: recombinant human HDAC6, ZMAL 10.5 µM, 90 min 37 °C; read-out: IC50 (µM) ± SE HDAC6
IC50 overview
Supply the numeric figure in µM, leaving out any unit text.

Answered examples (5):
* CCNC(=O)ONC(=O)CCCCCCC(=O)Nc1ccccc1 [Compound 2c] | 0.58
* O=C(CCCCCCC(=O)Nc1ccccc1)NOC(=O)NCc1ccccc1 [Compound 2b] | 0.637
* CCCCOc1ccc(CC(=O)NOC(=O)NC(C)C)cc1 [Compound 9] | 13.7
* O=C(CCCCCCC(=O)Nc1ccccc1)NOC(=O)Nc1ccccc1 [Compound 2d] | 0.187
* CCCCOc1ccc(CC(=O)NO)cc1 [Bufexamac (8), bufexamac, reference compound] | 2.24

Look up and report measured IC50 for this entry: CC(C)NC(=O)ONC(=O)CCCCCCC(=O)Nc1ccccc1 [Compound 2a]
2.11
